Values were extracted from PubChem BioAssay (NCI).

Entries annotated with measured growth
- Tested on: T-47D breast
- method: NCI-60 one-dose screen, 48 h (100 = growth as untreated, 0 = no growth, -100 = all killed)
- assay_conditions: 10 µM unless noted
This is part of a sample that, as a whole, favours compounds with a hit. Of some 83,000 tested, about 20% had one in any assay.
Report the value in % with no unit label.

## Task For CC(=O)N(C(C)=O)c1ccc(C)cc1 , what is its reported growth?
## Result 102

## Task Repeat for the following compound: CCNc1ccc2ccccc2c1N=Nc1ccc(N=Nc2ccccc2)cc1
## Result 84.7

## Task Try this compound too: S=c1nc(-c2ccccn2)c(-c2ccccn2)n[nH]1
## Result 93.9

## Task Quick one: Cc1[nH]n(-c2ccccc2)c(=O)c1C=NC(=S)C(N)=S
## Result 102

## Task And the next one, CCCC(OC(C)=O)c1ccc2c(c1)OCO2 (configuration not stated) ?
## Result 100

Next:
## Task Consider the compound shown here: CCOC(=O)c1ccc(NC(C)=O)o1 What is its recorded growth?
## Result 93.5

## Task Subsequent entry: O=C1NC(=O)C(c2ccccc2)O1 (configuration not stated)
## Result 83.8

* * *

- System: KM12 colon
- method: NCI-60 one-dose screen, 48 h (100 = growth as untreated, 0 = no growth, -100 = all killed)
- assay_conditions: 10 µM unless noted
About 83,000 compounds went through this panel and 20% of them were active in at least one assay; those are over-represented in the sample as a whole.
result_type: growth (%)
Lab book: enter the figure in %, no units written.

Here are 10 compounds together with their reported answers.
## Task GET /values?readout=growth&item= OCC1OC(n2ccc3c2ncn2ncnc32)C(O)C1O (stereo not drawn)
## Result 27.6

## Task Likewise for CCN(C(=O)Nc1ccccc1Cl)c1ccccc1 ?
## Result 105

## Task Query C[C@H](CCC[C@H](C)OS(=O)(=O)c1ccccc1)OS(=O)(=O)c1ccccc1 next
## Result 107

## Task And what about the compound O=c1n(CC2CO2)c(=O)n(CC2CO2)n1CC1CO1 (stereo not drawn) ?
## Result 84.4

## Task // repeat for Cc1ccc(C)c2c1CCC2=O and report
## Result 100

## Task Field entry: CC(=O)Oc1c(Cl)cccc1-c1ccccc1
## Result 104

## Task Try COc1cccc(C(=O)NNC(=O)c2cccc3ccccc23)c1 next.
## Result 115

## Task Likewise for COc1ccc2c(Cl)cc(NC(=O)Nc3c(C)cccc3C)nc2c1 ?
## Result 88.8

## Task Now give it for COc1ccc(/C=C\C(=O)/C=C/c2ccc(OC)cc2)cc1 too.
## Result 4.59

## Task Further, for O=C(O)c1cc(I)ccc1O ?
## Result 108

More entries:
## Task For the compound shown here, Cc1ccc(NC(=O)c2ccccc2Cl)cc1 , give the reported growth.
## Result 105

## Task Param item: O=[N+]([O-])c1c(O)c(CNCCCO)cc(CNCCCO)c1O
## Result 138

## Task Now consider COc1cccc(C(=O)O)c1OC and answer again.
## Result 101

* * *

- System: SK-MEL-28 melanoma
- method: NCI-60 one-dose screen, 48 h (100 = growth as untreated, 0 = no growth, -100 = all killed)
- assay_conditions: 10 µM unless noted
About 83,000 compounds went through this panel and 20% of them were active in at least one assay; those are over-represented in the sample as a whole.
Measured growth values are reported for all entries that follow.
Give just the number in %; leave the unit off.

Consider the worked cases shown below.
## Task Give SK-MEL-28 melanoma growth for COc1cccc(C(=O)NNC(=O)c2cccc3ccccc23)c1
## Result 117

## Task Now try Cc1ccc(/C=N/NC(N)=S)s1 .
## Result 113

## Task Another compound to look at: O=c1[nH]c(=O)c2cc(Cl)cc(Cl)c2[nH]1
## Result 124

Next:
## Task For SK-MEL-28 melanoma, provide growth of CCOC(=O)/C(O)=C(\C=N\C(=S)Nc1ccc(Cl)c(Cl)c1)C(=O)OCC please.
## Result 109

## Task Likewise for CC1(C)CC(=O)C=C(N)C1 ?
## Result 104

## Task Entry Oc1cc2ccccc2c(-c2c(O)c(O)cc3ccccc23)c1O please
## Result 53.2

## Task Continue with O=C(O)Cc1ccccn1
## Result 106

## Task Input Cc1cccc2ccccc12
## Result 98.2

## Task OCC1CCC(O)C(CO)N1 (stereo not given) ?
## Result 96.3

## Task Also, O=C(CCl)Nc1ccccc1SCc1cc(Cl)cc2c1OCOC2 please.
## Result 94

## Task And what about the compound C/C=C/C1OCC(CC)C(CCC)O1 (stereo not given) ?
## Result 112

## Task Also C=CCc1cc(OC)c(OC)c(OC)c1 ?
## Result 115

## Task Would you mind doing CCNc1ncnc2[nH]ncc12 as well?
## Result 111

* * *

Listed here are compounds together with their documented growth.
- System: M14 melanoma
- method: NCI-60 one-dose screen, 48 h (100 = growth as untreated, 0 = no growth, -100 = all killed)
- assay_conditions: 10 µM unless noted
About 83,000 compounds went through this panel and 20% of them were active in at least one assay; those are over-represented in the sample as a whole.
Give the value, in units of %, as a plain number.

Example results:
## Task Value lookup for growth; key = CC(=O)c1cc(O)ccc1O
## Result 101

## Task Also C1Cc2onc(-c3noc4c3CCC4)c2C1 ?
## Result 110

## Task Now the compound CCC(=O)C1C(=O)c2ccccc2C1=O
## Result 111

## Task Follow-up entry: Cn1c(=O)c2[nH]c(CC(=O)O)nc2n(C)c1=O
## Result 104

***
## Task Returns the measured growth for the input compound. Input: O=C(c1cccc(C(=O)c2ccc3c4c(cccc24)C(=O)N(c2ccccc2)C3=O)c1)c1ccc2c3c(cccc13)C(=O)N(c1ccccc1)C2=O
## Result 99.2

## Task Same question for CCOC(=O)C(=O)CC(=O)c1ccccc1 please.
## Result 97.1

## Task // repeat for Nc1cccc2cccc(O)c12 and report
## Result 96.7

## Task Request: Cc1ccc(N2C(=O)c3cccc4c(N)c(S(=O)(=O)O)cc(c34)C2=O)cc1
## Result 111

## Task Follow-up entry: CCCC(=O)CC(=O)c1ccccc1
## Result 100

## Task Follow-up item: CN1CCCN(C(c2ccccc2)c2ccc(Br)cc2)CC1 (configuration not stated)
## Result -8.62

## Task // same read-out, input: CSc1nc2[nH]ncc2c(=O)[nH]1
## Result 92.1

## Task And CC(=O)c1cccc(N(C)S(=O)(=O)c2ccc(C)cc2)c1 ?
## Result 77.6

* * *

- Test system: SK-MEL-28 melanoma
- method: NCI-60 one-dose screen, 48 h (100 = growth as untreated, 0 = no growth, -100 = all killed)
- assay_conditions: 10 µM unless noted
Compounds without any hit were thinned out: in the full panel of roughly 83,000, 20% have a hit.
result_type: growth (%)
Field: numeric (%). Do not append units.

## Task Recorded growth for CCOC(=O)c1cc(Cl)c(O)c(Cl)c1 , please?
## Result 106

## Task Next: CN1C(=O)NC(c2ccc(Cl)cc2)(c2ccc(Cl)cc2)C1=O
## Result 102

## Task Do the same for COc1cccc(C(=O)O)c1OC please
## Result 102

---
## Task Item CN(C(=S)S(=O)(=O)C12CC3CC(CC(C3)C1)C2)c1ccccc1 has what recorded growth?
## Result 107

## Task Proceed to CCOC(=O)C1(N)CCCCC1
## Result 165

## Task Would you mind doing Nc1nc(Cl)cc(Cl)n1 as well?
## Result 119

## Task How about this molecule: Clc1ccc(C(SCc2ccccc2)SCc2ccccc2)cc1
## Result 96.3

## Task Note, next up: O=C(O)Cc1ccc(Cl)cc1
## Result 132

## Task What do you have for CCCc1cccc(CCC)c1NC(=O)Nc1cc(Cl)cc(Cl)c1 ?
## Result 103

## Task How about OC1Cc2ccccc2C1 ?
## Result 102

## Task Same question, Cc1c(Cl)cccc1NC(=S)NC(=O)c1ccccc1 this time
## Result 102

## Task Next molecule: Cc1ccc(NCN2C(=O)c3ccccc3C2=O)c(C)n1
## Result 116

## Task Then what about the molecule CC(=O)OCC1OC(n2cnc3c(=S)nc(N)[nH]c32)C(OC(C)=O)C1OC(C)=O (stereo not drawn) ?
## Result 114

* * *

Recorded growth by entry
- Tested on: TK-10 renal
- method: NCI-60 one-dose screen, 48 h (100 = growth as untreated, 0 = no growth, -100 = all killed)
- assay_conditions: 10 µM unless noted
This is part of a sample that, as a whole, favours compounds with a hit. Of some 83,000 tested, about 20% had one in any assay. Active and inactive are the calls of the source. How the source made its calls: active means growth percent below 10; inactive means the rest.

Sample records with growth:
## Task # query: growth of entry Cc1c(-c2ccc(C3CCCCC3)cc2)nc2ccc(F)cc2c1C(=O)O
## Result 74.7% (inactive)

## Task Also need COc1ccc2c(c1)Nc1ccccc1S2 , thanks.
## Result 107% (inactive)

## Task Next compound up: OCC(O)COc1ccc(Cl)cc1Cl (configuration not stated)
## Result 101% (inactive)

## Task What do we get for C=C(OC(C)=O)c1ccccc1 ?
## Result 100% (inactive)

## Task Then this compound: Cc1cc(Cl)cc(Cc2cc(Cl)cc(C)c2O)c1O
## Result 34.6% (inactive)

More entries:
## Task Query (compound): N=C(N)c1nn(C2OC(CO)C(O)C2O)c2nc[nH]c(=O)c12 (configuration not stated) ; field requested: growth
## Result -9.5% (active)
